Kindly state z-score for each of the entries shown.
# test system: Metabotropic glutamate receptor 8 (Rattus norvegicus) (UniProt P70579)
# Sequence (P70579 whole entry, looked up): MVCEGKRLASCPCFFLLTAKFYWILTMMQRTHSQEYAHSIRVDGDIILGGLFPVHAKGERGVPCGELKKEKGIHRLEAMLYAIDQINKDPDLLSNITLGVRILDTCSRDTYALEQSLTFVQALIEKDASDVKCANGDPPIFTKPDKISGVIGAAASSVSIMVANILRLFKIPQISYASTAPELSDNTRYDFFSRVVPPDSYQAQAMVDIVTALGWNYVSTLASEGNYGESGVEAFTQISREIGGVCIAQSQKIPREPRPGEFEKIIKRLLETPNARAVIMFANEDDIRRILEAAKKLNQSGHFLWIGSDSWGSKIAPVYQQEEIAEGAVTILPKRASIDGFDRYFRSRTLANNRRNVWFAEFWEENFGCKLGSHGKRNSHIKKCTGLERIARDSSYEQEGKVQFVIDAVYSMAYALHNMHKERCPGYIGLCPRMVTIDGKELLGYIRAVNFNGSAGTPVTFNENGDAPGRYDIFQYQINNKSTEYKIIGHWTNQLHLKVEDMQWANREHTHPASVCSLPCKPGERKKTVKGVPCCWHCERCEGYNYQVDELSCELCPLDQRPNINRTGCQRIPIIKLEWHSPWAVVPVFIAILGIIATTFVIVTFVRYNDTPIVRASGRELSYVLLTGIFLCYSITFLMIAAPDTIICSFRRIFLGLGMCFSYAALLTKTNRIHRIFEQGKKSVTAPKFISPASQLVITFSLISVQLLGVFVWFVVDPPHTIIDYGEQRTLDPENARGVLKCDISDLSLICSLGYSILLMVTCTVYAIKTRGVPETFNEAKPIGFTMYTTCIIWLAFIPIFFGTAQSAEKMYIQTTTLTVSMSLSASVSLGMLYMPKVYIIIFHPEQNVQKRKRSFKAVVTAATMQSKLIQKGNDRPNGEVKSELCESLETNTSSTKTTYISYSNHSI
# procedure text: mGluR8 Gi/Go-coupled signaling modulation – cell-based, rat, thallium flux, HTS, primary screen (AID 488969)
# test parameters: HEK293 rat mGluR8, GIRK (G protein-gated inwardly rectifying potassium channel) thallium flux, FluoZin2; at 10 µM; stronger effect = higher value; submaximal glutamate (EC20) added with thallium
Over roughly 110,000 compounds, “z-score” has its median near -0.1; the highest 2% begin near 2. The entries come from a sample that favours the highest values as a whole.
Answers are plain numbers.

Record excerpt, results attached:
smiles repr | test system | endpoint name | value
Cc1ccccc1OCC(=O)NC(=S)Nc1ccc(N2CCOCC2)c(Cl)c1 | Metabotropic glutamate receptor 8 (Rattus norvegicus) (UniProt P70579) | z-score | 0.328
O=C(NC(=S)Nc1ccc(N2CCOCC2)c(Cl)c1)c1cncc(Br)c1 | Metabotropic glutamate receptor 8 (Rattus norvegicus) (UniProt P70579) | z-score | 7.69
O=C(NC(=S)Nc1ccc(N2CCOCC2)c(Cl)c1)C(c1ccccc1)c1ccccc1 | Metabotropic glutamate receptor 8 (Rattus norvegicus) (UniProt P70579) | z-score | 0.604
COc1ccc(OCC(=O)NC(=S)Nc2ccc(N3CCOCC3)c(Cl)c2)cc1 | Metabotropic glutamate receptor 8 (Rattus norvegicus) (UniProt P70579) | z-score | 2.19
Cc1ccc(OCC(=O)Nc2ccccc2N2CCOCC2)c(C)c1 | Metabotropic glutamate receptor 8 (Rattus norvegicus) (UniProt P70579) | z-score | 0.00977

Turning now to a further molecule:
Can you share its z-score? I mean this molecule: Cc1cc(Cl)ccc1OCC(=O)NC(=S)Nc1ccccc1N1CCOCC1
0.195
